Measured values drawn from PubChem BioAssay (NCI) for this set.

# reported TGI; entries follow
test system: EKVX NSCLC; assay: NCI tumour cell line growth inhibition, 48 h

- molecule: "COc1cc(Br)cc2c1O[C@H]1C(=O)CC3CC21CCN3C (some centres not stated)"
  TGI: "> 100 µM"

Need TGI, item COc1ccc2c(c1)OC(N)=C(C#N)C2c1ccc(F)c(F)c1 (configuration not stated)
> 100 µM

Using the record for `Nc1ccc(N=Nc2ccc(-c3ccc(N=Nc4c(S(=O)(=O)O)cc5cc(S(=O)(=O)O)c(N=Nc6ccc([N+](=O)[O-])cc6)c(N)c5c4O)cc3)cc2)c2cc(S(=O)(=O)O)ccc12` , report its TGI.
> 100 µM

Recorded TGI of `Fc1ccc(-c2nn3c(COc4ccccc4Cl)nnc3s2)cc1Oc1ccccc1` , please.
> 100 µM

So what's the measured TGI for this one? `CN(NC(=O)c1ccc(Cl)cc1)C1=NCCCCN1`
> 100 µM

Request the reported TGI associated with `CCOc1ccc(-n2c(=O)c3nn4c(=O)n(-c5ccc(OCC)cc5)c(=O)c4nn3c2=O)cc1`
> 100 µM

Give the measured TGI of `CN(CC(=O)O)S(=O)(=O)c1ccc(Cl)cc1` .
> 100 µM

Report TGI for CCCCCCCCOP(=O)(O)OP(=O)(O)OCC1OC(n2ccc(N)nc2=O)C(O)C1O (configuration not stated) please.
> 100 µM

Please give the measured TGI for this molecule: `O=C(O)CSc1nc2ccccc2[nH]1`
> 100 µM
